- Experiment: Antioxidant activity assessed as ABTS free radical scavenging activity by spectrophotometry
- Assay type: functional
- Parameters: concentration or dose not given beside the values
# Activity listing for each entry below
Answer shape: numeric part, then the unit.

{"columns": ["Smiles string", "Activity"],
 "data": [
  ["COc1ccc(-c2cc(=O)c3c(O)c(OC)c(OC)c(O)c3o2)cc1OC", "78.3%"]
]}

Kindly consider the entry below.
Problem: Look up Activity for this molecule: COc1cc(-c2cc(=O)c3cc(OC)c(OC)c(O)c3o2)cc(O)c1OC
Solution: 56.8%

----------
- Test system: PBL
- Experiment: Immunostimulant activity in PHA-stimulated human PBL assessed as lymphocyte transformation at 2 mM after 72 hrs by Giemsa staining method
- Format: functional
Reported values of Activity for individual entries
The response must be a number in % with no trailing unit.

A selection of reference data follows.
{"columns": ["Compound", "Value unit", "Value measured"],
 "data": [
  ["COc1cc(O)c2c(=O)cc(-c3ccc(OC)c(OC)c3)oc2c1", "%", 65],
  ["COc1ccc(-c2cc(=O)c3cc(OC)c(O)c(OC)c3o2)cc1OC", "%", 55],
  ["COc1ccc(-c2cc(=O)c3c(O)c(OC)c(OC)c(OC)c3o2)cc1", "%", 20],
  ["COc1ccc(-c2oc3c(OC)c(OC)c(OC)c(O)c3c(=O)c2OC)cc1 [5-HYDROXYAURANETIN]", "%", 25],
  ["COc1cc(-c2cc(=O)c3cc(OC)c(OC)c(O)c3o2)cc(O)c1OC", "%", 35],
  ["C=C1C[C@]23CC[C@H]4C(CO)(CO)C(=O)CC[C@]4(C)[C@H]2CC[C@@H]1C3", "%", 10]
]}

Problem: Would you mind telling me what Activity value was observed for COc1ccc(-c2cc(=O)c3c(O)c(OC)c(OC)c(O)c3o2)cc1OC ?
Solution: 15

Problem: // Activity lookup, key: COc1cc(-c2cc(=O)c3c(O)cc(OC)c(OC)c3o2)cc(OC)c1OC
Solution: 45

----------
- Experiment: Antioxidant activity assessed as ABTS free radical scavenging activity by spectrophotometry
- Type: functional
- Design: concentration or dose not given beside the values
Experimental endpoint: Activity
Please answer using a numeric value trailed by its unit.

// below: answered compounds
{"columns": ["Compound", "Activity"],
 "data": [
  ["COc1cc(-c2cc(=O)c3c(O)cc(OC)c(OC)c3o2)cc(OC)c1OC", "54.2%"],
  ["C=C1C[C@]23CC[C@H]4C(CO)(CO)C(=O)CC[C@]4(C)[C@H]2CC[C@@H]1C3", "34.3%"],
  ["O=C1O[C@H]([C@@H](O)CO)C(O)=C1O", "80%"]
]}

Consider the record given below.
Problem: Need Activity of COc1ccc(-c2oc3c(OC)c(OC)c(OC)c(O)c3c(=O)c2OC)cc1 [5-HYDROXYAURANETIN] , thanks.
Solution: 71.1%

----------
- Experiment: Antioxidant activity assessed as ABTS free radical scavenging activity by spectrophotometry
- Type: functional
- Design: concentration or dose not given beside the values
Documented Activity across a set of compounds
Write down the numeric answer in % and omit the unit.

{"columns": ["Smiles string", "Value measured"],
 "data": [
  ["COc1ccc(-c2cc(=O)c3cc(OC)c(O)c(OC)c3o2)cc1OC", 52.7],
  ["COc1cc(O)c2c(=O)cc(-c3ccc(OC)c(OC)c3)oc2c1", 45.8]
]}

Problem: Data request, read-out Activity, for COc1ccc(-c2cc(=O)c3c(O)c(OC)c(OC)c(OC)c3o2)cc1
Solution: 75.4

These entries and their values trace back to ChEMBL document CHEMBL2407006.
